Data credit: ChEMBL document CHEMBL5291721

Below are compounds with their AC50 as measured on D(3) dopamine receptor (Homo sapiens, UniProt P35462).
Sequence (P35462 whole entry): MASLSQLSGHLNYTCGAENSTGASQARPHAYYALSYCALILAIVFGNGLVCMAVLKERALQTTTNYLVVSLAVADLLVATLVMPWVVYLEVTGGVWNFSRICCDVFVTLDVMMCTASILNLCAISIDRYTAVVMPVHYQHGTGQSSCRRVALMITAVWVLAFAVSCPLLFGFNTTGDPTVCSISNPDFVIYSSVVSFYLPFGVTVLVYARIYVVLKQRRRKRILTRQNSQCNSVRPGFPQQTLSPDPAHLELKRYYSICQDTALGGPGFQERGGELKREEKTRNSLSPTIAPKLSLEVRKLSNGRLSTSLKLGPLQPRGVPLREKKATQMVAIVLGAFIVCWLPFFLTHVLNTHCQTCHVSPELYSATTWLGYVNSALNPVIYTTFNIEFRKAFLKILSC

Recorded results for 7 compounds are shown here.
[
  {
    "compound": "CCOC(=O)[C@H](CCc1ccccc1)N[C@H]1CCCN2CCC[C@@H](C(=O)O)N2C1=O",
    "test_target": "D(3) dopamine receptor (Homo sapiens, UniProt P35462)",
    "observable": "AC50",
    "measured_result": "> 30 µM"
  },
  {
    "compound": "CCCCCCCCCCCC[N+](C)(C)CCOc1ccccc1",
    "test_target": "D(3) dopamine receptor (Homo sapiens, UniProt P35462)",
    "observable": "AC50",
    "measured_result": "2.1 µM"
  },
  {
    "compound": "C[C@@H]1O[C@@H]1P(=O)(O)O",
    "test_target": "D(3) dopamine receptor (Homo sapiens, UniProt P35462)",
    "observable": "AC50",
    "measured_result": "> 30 µM"
  },
  {
    "compound": "Nc1nc2ccc(OC(F)(F)F)cc2s1",
    "test_target": "D(3) dopamine receptor (Homo sapiens, UniProt P35462)",
    "observable": "AC50",
    "measured_result": "> 30 µM"
  },
  {
    "compound": "C1COC(NC(C2CC2)C2CC2)=N1",
    "test_target": "D(3) dopamine receptor (Homo sapiens, UniProt P35462)",
    "observable": "AC50",
    "measured_result": "> 10 µM"
  },
  {
    "compound": "CN(C)C(=O)OC1N=C(c2ccccc2)c2cc(Cl)ccc2N(C)C1=O (stereo not drawn)",
    "test_target": "D(3) dopamine receptor (Homo sapiens, UniProt P35462)",
    "observable": "AC50",
    "measured_result": "> 10 µM"
  },
  {
    "compound": "C[C@H]1O[C@H](O[C@H]2[C@H](O)[C@@H](O)[C@@H](O[C@H]3[C@H](O)[C@@H](O)C(O)O[C@@H]3CO)O[C@@H]2CO)[C@H](O)[C@@H](O)[C@@H]1N[C@H]1C=C(CO)[C@@H](O)[C@H](O)[C@H]1O (stereo partly drawn)",
    "test_target": "D(3) dopamine receptor (Homo sapiens, UniProt P35462)",
    "observable": "AC50",
    "measured_result": "> 10 µM"
  }
]

For the compound shown here, `O=C(O)CCn1c2c(c3ccccc31)C[C@H](NS(=O)(=O)c1ccc(F)cc1)CC2` , give the reported AC50.
> 30 µM
